Recorded IC50, one value per entry.
- measurement.target: PI3Kβ (Homo sapiens)
- Construct: made in house
- Sequence (P42338 whole entry): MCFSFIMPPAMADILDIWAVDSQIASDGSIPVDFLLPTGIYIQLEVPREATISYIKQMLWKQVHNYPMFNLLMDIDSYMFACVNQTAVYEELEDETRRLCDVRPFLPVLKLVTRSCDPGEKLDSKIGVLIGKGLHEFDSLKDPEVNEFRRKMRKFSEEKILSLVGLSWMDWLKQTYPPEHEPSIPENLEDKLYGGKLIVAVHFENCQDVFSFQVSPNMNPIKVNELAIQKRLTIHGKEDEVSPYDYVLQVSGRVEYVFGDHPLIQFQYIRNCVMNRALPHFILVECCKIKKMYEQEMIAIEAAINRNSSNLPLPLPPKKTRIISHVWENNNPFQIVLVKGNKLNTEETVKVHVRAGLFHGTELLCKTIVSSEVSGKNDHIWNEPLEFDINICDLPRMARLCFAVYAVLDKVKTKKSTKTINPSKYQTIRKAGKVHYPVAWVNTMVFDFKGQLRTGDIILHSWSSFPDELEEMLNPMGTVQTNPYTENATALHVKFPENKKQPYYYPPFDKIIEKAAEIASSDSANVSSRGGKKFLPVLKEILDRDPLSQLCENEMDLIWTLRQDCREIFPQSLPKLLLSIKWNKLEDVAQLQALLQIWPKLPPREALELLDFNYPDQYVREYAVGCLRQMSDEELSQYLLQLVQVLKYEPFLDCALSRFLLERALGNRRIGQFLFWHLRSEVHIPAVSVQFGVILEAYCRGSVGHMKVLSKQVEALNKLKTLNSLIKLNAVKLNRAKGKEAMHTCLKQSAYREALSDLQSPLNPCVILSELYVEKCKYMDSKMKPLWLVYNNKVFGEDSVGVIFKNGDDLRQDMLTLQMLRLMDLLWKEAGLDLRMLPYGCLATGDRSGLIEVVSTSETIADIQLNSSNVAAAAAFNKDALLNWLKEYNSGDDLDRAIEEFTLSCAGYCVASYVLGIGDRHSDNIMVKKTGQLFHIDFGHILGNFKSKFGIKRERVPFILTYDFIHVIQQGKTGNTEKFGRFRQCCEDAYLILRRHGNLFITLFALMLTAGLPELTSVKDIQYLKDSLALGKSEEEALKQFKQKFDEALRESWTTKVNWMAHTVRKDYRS
- Sequence (P27986 whole entry partner): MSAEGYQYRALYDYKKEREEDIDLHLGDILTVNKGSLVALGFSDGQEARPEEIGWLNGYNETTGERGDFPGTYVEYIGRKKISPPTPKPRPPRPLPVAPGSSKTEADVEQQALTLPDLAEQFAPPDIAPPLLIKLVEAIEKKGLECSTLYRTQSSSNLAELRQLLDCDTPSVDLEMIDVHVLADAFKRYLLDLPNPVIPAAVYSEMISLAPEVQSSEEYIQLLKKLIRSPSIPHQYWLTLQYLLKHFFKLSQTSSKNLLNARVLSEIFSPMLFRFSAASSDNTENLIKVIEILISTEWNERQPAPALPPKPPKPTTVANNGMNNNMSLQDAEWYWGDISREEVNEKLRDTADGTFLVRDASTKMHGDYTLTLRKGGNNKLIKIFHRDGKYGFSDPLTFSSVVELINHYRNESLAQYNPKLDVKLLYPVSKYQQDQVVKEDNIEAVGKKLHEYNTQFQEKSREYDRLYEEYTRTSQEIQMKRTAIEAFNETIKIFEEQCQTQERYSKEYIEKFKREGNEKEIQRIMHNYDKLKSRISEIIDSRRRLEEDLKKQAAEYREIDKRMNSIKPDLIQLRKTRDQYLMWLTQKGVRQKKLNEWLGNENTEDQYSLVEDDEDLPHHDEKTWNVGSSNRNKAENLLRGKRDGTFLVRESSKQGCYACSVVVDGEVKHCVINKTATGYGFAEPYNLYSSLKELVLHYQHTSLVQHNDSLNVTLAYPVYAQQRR
- method: TR-FRET enzymatic activity assay, PI3Kβ
- Type: biochemical
- condition.details: Table 2; TR-FRET, 2x Km ATP, 30 minutes at 25° C.

# compound.structure.string, IC50, nM
measured = [
    ("CC[C@H](Nc1nc(N)nc(N)c1C#N)c1nc2c(C)cccc2c(=O)n1-c1cn[nH]c1", 84),
    ("CC[C@H](Nc1nc(F)nc2[nH]cnc12)c1nc2c(Cl)ccc(Cl)c2c(=O)n1-c1cc[nH]n1", 76),
    ("CC[C@H](Nc1nc(N)nc(N)c1C#N)c1nc2cccc(Cl)c2c(=O)n1-c1cn[nH]c1", 9),
    ("CC[C@H](Nc1nc(N)nc(N)c1Cl)c1nc2c(Cl)ccc(Cl)c2c(=O)n1-c1cc[nH]n1", 150),
    ("CC[C@H](Nc1ncnc2sccc12)c1nc2c(Cl)ccc(Cl)c2c(=O)n1-c1cn[nH]c1", 1300),
    ("C[C@H](Nc1nc(N)nc2[nH]nc(Br)c12)c1nc2cccc(Cl)c2c(=O)n1-c1cc[nH]n1", 10),
    ("CC[C@H](Nc1nc(N)nc(C)c1C#N)c1nc2c(C#N)cccc2c(=O)n1-c1cc[nH]n1", 0.6),
    ("CC[C@H](Nc1nc(N)nc(N)c1C#N)c1nc2c(C#N)cccc2c(=O)n1-c1cc[nH]n1", 1),
    ("O=c1c2c(Cl)cccc2nc([C@H](COCc2ccccc2)Nc2ncnc3scnc23)n1-c1cn[nH]c1", 11),
]
